The compounds below each have a reported Ki tested on Norepinephrine transporter (Rattus norvegicus, UniProt Q9WTR4); the values come from various publications.
Sequence (Q9WTR4 whole entry): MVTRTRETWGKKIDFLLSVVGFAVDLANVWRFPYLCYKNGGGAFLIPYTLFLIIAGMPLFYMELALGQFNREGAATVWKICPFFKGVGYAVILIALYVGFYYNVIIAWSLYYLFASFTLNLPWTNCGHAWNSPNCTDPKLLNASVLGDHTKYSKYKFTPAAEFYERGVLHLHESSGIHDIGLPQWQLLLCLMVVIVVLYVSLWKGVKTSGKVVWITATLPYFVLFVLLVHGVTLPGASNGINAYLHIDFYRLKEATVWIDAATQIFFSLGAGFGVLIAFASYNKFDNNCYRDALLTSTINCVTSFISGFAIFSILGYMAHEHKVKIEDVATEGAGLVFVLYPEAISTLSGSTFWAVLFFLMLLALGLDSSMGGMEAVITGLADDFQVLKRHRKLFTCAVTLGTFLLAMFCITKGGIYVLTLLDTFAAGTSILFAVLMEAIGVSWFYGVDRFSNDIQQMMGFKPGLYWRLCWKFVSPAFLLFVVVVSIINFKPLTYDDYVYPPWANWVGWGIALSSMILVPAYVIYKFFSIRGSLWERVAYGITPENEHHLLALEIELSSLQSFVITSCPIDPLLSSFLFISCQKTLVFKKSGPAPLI
Measurement Kind: Ki (nM)

>  <Compound>
Ic1ccccc1OC(c1ccccc1)C1CNCCO1 (racemic)

>  <Result Value>
2.47

$$$$

[a] CN(C)Cc1ccccc1Sc1ccc(Br)cc1CO
[b] COCc1cc(Br)ccc1Sc1ccccc1CN(C)C
[c] CN(C)Cc1ccccc1Sc1ccc(Br)cc1N
[d] CN(C)Cc1cc(F)ccc1Sc1ccc(C#N)cc1N
Sort low-to-high on Ki, please. Answer by listing the labels in the requested order. a, c, b, d

###

The molecules below each have a reported Ki tested on Norepinephrine transporter (Rattus norvegicus); the values come from various publications.
Measurement Kind: Ki (nM)

# example entries with known answers
>  <Molecule>
Fc1ccc(N(CCCN2CCNCC2)c2ccc(F)cc2)cc1

>  <Ki [nM]>
396

$$$$
>  <Molecule>
COc1ccccc1COC(c1cccc(I)c1)C1CNCCO1 (racemic)

>  <Ki [nM]>
73.8

$$$$
>  <Molecule>
COCc1cc(I)ccc1Sc1ccccc1CN(C)C

>  <Ki [nM]>
212

$$$$
>  <Molecule>
Fc1ccc(N(CCCN2CCN(CCCc3ccccc3)CC2)c2ccc(F)cc2)cc1

>  <Ki [nM]>
682

$$$$

[a] c1ccc(C(Oc2cccc3ccccc23)C2CCNCC2)cc1 (single isomer, unassigned; (+))
[b] CN(C)C[C@H]1C[C@@H]2c3ccccc3Cc3ccccc3[C@H]2O1
Endpoint returns the identifier whose Ki is numerically larger, either a or b . Answer format: the label of the selected item. a

[1] C[C@@H]1CN(CCCN(c2ccc(F)cc2)c2ccc(F)cc2)C[C@@H](C)N1CCCc1ccccc1
[2] CN(C)Cc1cc(Cl)ccc1Oc1ccc(F)cc1N
Identify the entry with the smaller Ki: 1 or 2 . Answer format: the label of the selected item. 1
